- Tested on: COLO 205
- PROCEDURE_SUMMARY: NCI tumour cell line growth inhibition, 48 h
The source made the active and inactive calls. Rule as the data show it: active = GI50 up to about 1.1 µM and inactive = higher.

COMPOUND: c1ccc2c(c1)C1=NCCN1c1ccccc1-2
GI50: 1.38 µM (inactive)
--
COMPOUND: CC(C)CCCCCCCCCCCCC(=O)NCC(=O)NC1C(C)OC(Nc2ncnc3c2ncn3C)C(O)C1O (centres undefined)
GI50: 3.81 µM (inactive)
--
COMPOUND: CCN(CC)c1ccc(C2SCC(=O)N2c2ccc(NC(=O)c3ccc(N4C(=O)CSC4c4ccc(N(CC)CC)cc4)cc3)cc2)cc1 (centres undefined)
GI50: > 100 µM (inactive)
--
COMPOUND: COc1ccc(/C=C/COC(C)=O)cc1OC
GI50: > 100 µM (inactive)
--
COMPOUND: O=C(CNc1ccccc1Cl)Nn1c(-c2ccccc2)nc2ccccc2c1=O
GI50: 17.9 µM (inactive)
--
COMPOUND: O=S(=O)(O)CCSSCCS(=O)(=O)O
GI50: > 1000 µM (inactive)
--
COMPOUND: Cn1c(=O)sc2cc(C(=S)N3CCOCC3)ccc21
GI50: > 80.7 µM (inactive)
--
COMPOUND: COc1cccc(CCn2c(N)c(-c3ccccc3)c3ccc([N+](=O)[O-])cc3c2=O)c1
GI50: 2.16 µM (inactive)
--
COMPOUND: Cc1c(CNc2ccc(Cl)c(C(=O)NC(CC(=O)O)C(=O)O)c2)ccc2nc(N)nc(N)c12 (centres undefined)
GI50: 4.66 µM (inactive)
--
COMPOUND: CC(C)=CCCC1(C)C=Cc2c(c(C)cc3c2[nH]c2cc(O)ccc23)O1 (centres undefined)
GI50: > 25 µM (inactive)
--
COMPOUND: Cc1cc(N(CCC#N)CCC#N)ccc1/N=N/c1cccc(C(=O)O)c1
GI50: > 100 µM (inactive)
--
COMPOUND: ClC1=NN=C(c2c[nH]c3ccccc23)CC1NCc1ccccc1 (centres undefined)
GI50: > 100 µM (inactive)
--
COMPOUND: CCC1(O)CC(OC2CC(N(C)C)C(OC3CC(O)C(OC4OC(C)C(=O)C=C4N)C(C)O3)C(C)O2)c2c(cc3c(c2O)C(=O)c2c(O)cccc2C3=O)C1C(=O)OC (centres undefined)
GI50: 0.00429 µM (active)
--
COMPOUND: COc1ccc2c(c1)CCc1c(C(C)=O)c3ccccc3n1C2
GI50: > 100 µM (inactive)
